Experiment: STAT1 signaling activators, primary screen, cell-based, HTS, luciferase reporter (AID 932)
Conditions: NIH 3T3 STAT1-luciferase reporter, IFN-gamma, luminescence; at 5.5 µM; 100% = IFN-gamma alone, no compound
Screen size: about 200,000 compounds; about 5,100 (2.5%) were called active.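 The calls were made as follows: active = activation above the screen-wide mean activation plus 3 SD (cut at about 130% in these data); inactive = the rest.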 For the sample, actives were picked, then their nearest neighbours and some compounds at random.
Outcomes: Yes = active, No = inactive

[
  {
    "Compound": "CCOc1ccc(S(=O)(=O)Nc2ccncc2)c(C)c1C",
    "Group Label": "No"
  },
  {
    "Compound": "OC(c1nnc(-c2ccccc2)o1)c1cccs1 (configuration not stated)",
    "Group Label": "No"
  },
  {
    "Compound": "CC(C)C(=O)OCC(=O)Nc1ccc2c(c1)CCC2",
    "Group Label": "No"
  },
  {
    "Compound": "O=C(NC1CCCC1)c1ccc(Br)s1",
    "Group Label": "No"
  },
  {
    "Compound": "CS(=O)(=O)N(CC(=O)N1CCCC1)Cc1ccccc1",
    "Group Label": "No"
  },
  {
    "Compound": "Brc1ccc(-c2nnc(-c3ccccc3)o2)o1",
    "Group Label": "Yes"
  },
  {
    "Compound": "Nc1ccc(-c2nnc(-c3ccc(-c4ccccc4)cc3)o2)cc1",
    "Group Label": "Yes"
  }
]

// data source = PubChem BioAssay AID932
